src = patent US10800792B2

# assayed system: unphosphorylated-BTK kinase domain (UP-BTK), GST-tagged human BTK (389-659aa) (Homo sapiens (Human))
# method summary: BTK kinase Lanthascreen binding assay
# experimental setup: unphosphorylated-BTK kinase domain, 50 nM Tracer 236, 60 minutes; pIC50 = negative log of the IC50 in molar; read-out: BTK_I_binding pIC50 (converted)
So I've got a bunch of compounds here, and I need their log10 of IC50 values.
Heads up, the numbers here are log10 of IC50 in nM units.

IN: Field request: log10 of IC50 | item: "[2H]c1c([2H])c([2H])c(Oc2ccc(N3C(=O)Nc4c(C(=O)N[C@@H]5CCCN(C#N)C5)sc5nccc3c45)c(C)c2)c([2H])c1[2H]"
OUT: 1.50

IN: Field request: log10 of IC50 | item: "[2H]c1c([2H])c([2H])c(Oc2ccc(N3C(=O)Nc4c(C(=O)N[C@@H]5CCN(C(=O)C=C)C5)sc5nccc3c45)c(C)c2)c([2H])c1[2H]"
OUT: 1.20

IN: Field request: log10 of IC50 | item: "[2H]c1c([2H])c([2H])c(Oc2ccc(N3C(=O)Nc4c(C(=O)N[C@@H]5CCCN(C)C5)sc5nccc3c45)c(C)c2)c([2H])c1[2H]"
OUT: 1.90

IN: Field request: log10 of IC50 | item: "O=C(N[C@H]1CNC[C@H](O)C1)c1sc2nccc3c2c1NC(=O)N3c1ccc(Oc2ccccc2)cc1"
OUT: 2.40

IN: Field request: log10 of IC50 | item: "[2H]c1c([2H])c([2H])c(Oc2ccc(N3C(=O)Nc4c(C(=O)N[C@@H]5CCCN(C(=O)C=C)C5)sc5nccc3c45)c(C)c2)c([2H])c1[2H]"
OUT: 1.10

IN: Field request: log10 of IC50 | item: "[2H]c1c([2H])c([2H])c(Oc2ccc(N3C(=O)Nc4c(C(=O)N[C@@H]5CCCN(C([2H])([2H])[2H])C5)sc5nccc3c45)c(C)c2)c([2H])c1[2H]"
OUT: 2.20

IN: Field request: log10 of IC50 | item: "O=C(N[C@@H]1CCCNC1)c1sc2nccc3c2c1NC(=O)N3c1ccc(OC(F)(F)F)cc1"
OUT: 3.80

IN: Field request: log10 of IC50 | item: "[2H]c1c([2H])c([2H])c(Oc2ccc(N3C(=O)Nc4c(C(=O)N[C@@H]5CCCN(C(=O)/C(C#N)=C/C6CC6)C5)sc5nccc3c45)c(C)c2)c([2H])c1[2H]"
OUT: 1.50

IN: Field request: log10 of IC50 | item: "Cc1cc(OC(F)(F)F)ccc1N1C(=O)Nc2c(C(=O)N[C@@H]3CCCNC3)sc3nccc1c23"
OUT: 3.40

IN: Field request: log10 of IC50 | item: "CN(C)C/C=C/C(=O)N1CC[C@@H](NC(=O)c2sc3nccc4c3c2NC(=O)N4c2cccc(-c3ccccc3)c2)C1"
OUT: 1.80

IN: Field request: log10 of IC50 | item: "C=CC(=O)N1CC[C@@H](NC(=O)c2sc3nccc4c3c2NC(=O)N4c2ccc(Oc3ccccc3)cc2)[C@@H](O)C1"
OUT: 2.20

IN: Field request: log10 of IC50 | item: Cc1cc(Oc2ccccc2)ccc1N1C(=O)Nc2c(C(=O)N[C@@H]3CCCN(C(=O)/C(C#N)=C/C4CC4)C3)sc3nccc1c23 (single isomer, unassigned)
OUT: 1.70

IN: Field request: log10 of IC50 | item: [2H]C([2H])([2H])N1CCC[C@@H](NC(=O)c2sc3nccc4c3c2NC(=O)N4c2ccc(Oc3ccccc3)cc2C)C1 [Example 370]
OUT: 2.00

IN: Field request: log10 of IC50 | item: [2H]C([2H])([2H])N1CCC[C@@H](NC(=O)c2sc3nccc4c3c2NC(=O)N4c2ccc(Oc3ccccc3)cc2C)C1 (single isomer, unassigned) [Example 535]
OUT: 1.50

IN: Field request: log10 of IC50 | item: "CC(C)Oc1ccc(N2C(=O)Nc3c(C(=O)N[C@@H]4CCCNC4)sc4nccc2c34)cc1"
OUT: 3.50

----------
# assayed system: unphosphorylated-BTK kinase domain (UP-BTK), GST-tagged human BTK (389-659aa) (Homo sapiens (Human), UniProt Q06187)
# Sequence (Q06187 389-659): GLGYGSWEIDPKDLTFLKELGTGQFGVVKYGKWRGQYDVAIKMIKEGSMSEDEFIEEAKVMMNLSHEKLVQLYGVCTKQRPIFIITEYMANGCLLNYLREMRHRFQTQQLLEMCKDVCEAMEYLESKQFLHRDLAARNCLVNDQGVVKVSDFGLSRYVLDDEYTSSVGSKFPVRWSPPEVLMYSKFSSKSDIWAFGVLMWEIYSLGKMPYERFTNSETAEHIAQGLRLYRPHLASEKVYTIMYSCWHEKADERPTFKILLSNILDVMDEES
# method summary: BTK kinase Lanthascreen binding assay
# experimental setup: pIC50 = negative log of the IC50 in molar; 60 minutes incubation, 50 nM Tracer 236
Binarize BTK_I_binding pIC50 at 7; below is yes, at or above is no.

IN: Answer whether the compound C=CC(=O)N1CC[C@@H](NC(=O)c2sc3nccc4c3c2NC(=O)N4c2ccc(Oc3ccccc3)cc2C)C1 [Example 11] has BTK_I_binding pIC50 strictly less than 7
OUT: no

IN: Answer whether the compound "O=C(N[C@@H]1CCCNC1)c1sc2nccc3c2c1NC(=O)N3c1ccc(Oc2ccccc2)cc1F" has BTK_I_binding pIC50 strictly less than 7
OUT: no

IN: Answer whether the compound C#CC(=O)N1CCC[C@@H](NC(=O)c2sc3nccc4c3c2NC(=O)N4c2ccc(Oc3ccccc3)cc2C)C1 [Example 161] has BTK_I_binding pIC50 strictly less than 7
OUT: no

IN: Answer whether the compound "Cc1cc(Oc2ccccc2)ccc1N1C(=O)Nc2c(C(=O)N[C@H]3CN(C)C[C@H]3O)sc3nccc1c23" has BTK_I_binding pIC50 strictly less than 7
OUT: yes

IN: Answer whether the compound "CC(C)=C(F)C(=O)N1CCC[C@@H](NC(=O)c2sc3nccc4c3c2NC(=O)N4c2ccc(Oc3ccccc3)cc2C)C1" has BTK_I_binding pIC50 strictly less than 7
OUT: yes

IN: Answer whether the compound "Cc1cc(Oc2ccccc2C2CC2)ccc1N1C(=O)Nc2c(C(=O)N[C@@H]3CCCN(C)C3)sc3nccc1c23" has BTK_I_binding pIC50 strictly less than 7
OUT: yes

----------
# assayed system: unphosphorylated-BTK kinase domain (UP-BTK), GST-tagged human BTK (389-659aa) (Homo sapiens (Human), UniProt Q06187)
# method summary: BTK kinase Lanthascreen binding assay
# experimental setup: unphosphorylated-BTK kinase domain, 60 minutes incubation, 50 nM Tracer 236; pIC50 = negative log of the IC50 in molar
So I've got a bunch of molecules here, and I need their BTK_I_binding pIC50 values.

IN: Field request: BTK_I_binding pIC50 | item: "O=C(N[C@@H]1CCCNC1)c1sc2nccc3c2c1NC(=O)N3c1cccc(-c2cccnc2)c1"
OUT: 6.0

IN: Field request: BTK_I_binding pIC50 | item: "C=CC(=O)N1CCC[C@@H](NC(=O)c2sc3nccc4c3c2NC(=O)N4c2ccc(Oc3cccnn3)nc2C)C1"
OUT: 5.0

IN: Field request: BTK_I_binding pIC50 | item: "Cc1ccccc1N1C(=O)Nc2c(C(=O)N[C@H]3CCCN(C(=O)/C(C#N)=C/C4CC4)C3)sc3nccc1c23"
OUT: 5.6

IN: Field request: BTK_I_binding pIC50 | item: "N#C/C(=C\C1CC1)C(=O)N1CCC[C@H](NC(=O)c2sc3nccc4c3c2NC(=O)N4c2ccc(C(=O)Nc3cc(C(F)(F)F)ccn3)cc2F)C1"
OUT: 6.8

IN: Field request: BTK_I_binding pIC50 | item: "O=C(N[C@@H]1CCCNC1)c1sc2nccc3c2c1NC(=O)N3c1ccc(F)cc1"
OUT: 5.1

IN: Field request: BTK_I_binding pIC50 | item: "Cc1ccc(Oc2ccccc2)cc1N1C(=O)Nc2c(C(=O)N[C@H]3CCCN(C(=O)/C(C#N)=C/C4CC4)C3)sc3nccc1c23"
OUT: 6.0

IN: Field request: BTK_I_binding pIC50 | item: "O=C(N[C@@H]1CCNC1)c1sc2nccc3c2c1NC(=O)N3c1ccc(Oc2ccccc2)cc1"
OUT: 6.6

IN: Field request: BTK_I_binding pIC50 | item: "COc1ccccc1Oc1ccc(N2C(=O)Nc3c(C(=O)NC4CCNCC4)sc4nccc2c34)c(C)c1"
OUT: 6.4

IN: Field request: BTK_I_binding pIC50 | item: "O=C(N[C@H]1CCN(Cc2ccccc2)C1)c1sc2nccc3c2c1NC(=O)N3c1ccc(Oc2ccccc2)cc1"
OUT: 5.5

IN: Field request: BTK_I_binding pIC50 | item: "O=C(NC1CCNCC1)c1sc2nccc3c2c1NC(=O)N3c1ccc(Oc2ccccc2)cc1"
OUT: 6.2

IN: Field request: BTK_I_binding pIC50 | item: "Cc1c(Oc2ccccc2)cccc1N1C(=O)Nc2c(C(=O)N[C@H]3CCCN(C(=O)/C(C#N)=C/C4CC4)C3)sc3nccc1c23"
OUT: <5

IN: Field request: BTK_I_binding pIC50 | item: O=C(NC1CCCN(C(=O)CCCl)C1)c1sc2nccc3c2c1NC(=O)N3c1ccc(Oc2ccccc2)cn1 (stereo in doubt)
OUT: 6.7

IN: Field request: BTK_I_binding pIC50 | item: "Cc1cc(Oc2ccccc2)ccc1N1C(=O)Nc2c(C(=O)NC3CCN(C(=O)/C(C#N)=C/C(C)(C)C)CC3)sc3nccc1c23"
OUT: 6.3

IN: Field request: BTK_I_binding pIC50 | item: "O=C(NCCN1CCNCC1)c1sc2nccc3c2c1NC(=O)N3c1ccc(Oc2ccccc2)cc1"
OUT: 6.2
